Bliss excess listing for selected molecules.
System: IGR-1 (Melanoma);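 further: after 72 h of two-drug dosing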
Experiment: Bliss excess, mean over the matrix (fraction); higher = more synergy
Hey, just send me the number, nothing else.

Consider the worked cases shown below.
molecule | Bliss excess
COc1nnc2ccc(N3CCC(c4ccc(OCCN5CCN(C)C(=O)[C@H]5C)cc4)CC3)nn12 [AZD5153] + CC1(C)CCC(CN2CCN(c3ccc(C(=O)NS(=O)(=O)c4ccc(NCC5CCOCC5)c([N+](=O)[O-])c4)c(Oc4cnc5[nH]ccc5c4)c3)CC2)=C(c2ccc(Cl)cc2)C1 [Venetoclax] (first compound max 1 µM, 7x7, partner max 1 µM) | -0.0221
Cc1cc2ncnn2cc1Nc1ncc2c(n1)n(C1CCOCC1)c(=O)n2C [AZD7648] + CCN(CCO)CCCOc1ccc2c(Nc3cc(CC(=O)Nc4cccc(F)c4)[nH]n3)ncnc2c1 [AZD2811] (first compound max 10 µM, 7x7, partner max 1 µM) | -0.0224

API: the following record is the query input.
Consider the molecule CN(CCO)CC[C@H](CSc1ccccc1)Nc1ccc(S(=O)(=O)NC(=O)c2ccc(N3CCC([C@@H](O)c4ccccc4-c4ccc(Cl)cc4)CC3)cc2)cc1S(=O)(=O)C(F)(F)F [AZD4320] + C1CN(CCC1(C(=O)N[C@@H](CCO)C2=CC=C(C=C2)Cl)N)C3=NC=NC4=C3C=CN4 [Capivasertib] (first compound max 1 µM, 7x7, partner max 3 µM) and give its measured Bliss excess.
-0.0557
